I'd appreciate it if you could supply EC50 values for the items below.
- assayed_system: PPAR delta (Homo sapiens)
- Sequence (Q03181 211-439 limits assumed): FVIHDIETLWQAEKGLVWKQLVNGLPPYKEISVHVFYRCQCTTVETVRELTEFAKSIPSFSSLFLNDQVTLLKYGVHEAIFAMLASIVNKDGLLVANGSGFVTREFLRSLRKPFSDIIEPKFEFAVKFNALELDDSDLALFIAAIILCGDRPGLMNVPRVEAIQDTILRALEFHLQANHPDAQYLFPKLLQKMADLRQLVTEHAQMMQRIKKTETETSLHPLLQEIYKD
- assay_name: Transient transfection (transactivation) assay in CV-1 cells, GAL4-PPAR chimera, luciferase reporter

Exercise: # query: EC50 | item "Cc1ccc(N2CCN(S(=O)(=O)c3cc(CC(=O)O)ccc3C)CC2)c(C)c1" | system: PPAR delta (Homo sapiens)
Solution: > 100 µM

Exercise: # query: EC50 | item "Cc1ccc(S(=O)(=O)N2[C@H](C)CN(c3ccc(Cl)c(Cl)c3)C[C@@H]2C)cc1CC(=O)O" | system: PPAR delta (Homo sapiens)
Solution: < 5 µM

Exercise: # query: EC50 | item "COc1ccccc1N1CCN(S(=O)(=O)c2cccc(CC(=O)O)c2)CC1" | system: PPAR delta (Homo sapiens)
Solution: > 100 µM

Exercise: # query: EC50 | item "Cc1cc(CC(=O)O)cc(S(=O)(=O)N2CCN(c3ccccc3)CC2)c1" | system: PPAR delta (Homo sapiens)
Solution: > 100 µM

Exercise: # query: EC50 | item "Cc1cc(S(=O)(=O)N2CCN(c3ccc(C(F)(F)F)cn3)CC2)cc(CC(=O)O)c1Br" | system: PPAR delta (Homo sapiens)
Solution: < 5 µM

Exercise: # query: EC50 | item "CCNCc1cc(CC(=O)O)cc(S(=O)(=O)N2CCN(c3ccc(C(F)(F)F)cc3)CC2)c1" | system: PPAR delta (Homo sapiens)
Solution: > 100 µM

Exercise: # query: EC50 | item "Cc1ccc(S(=O)(=O)N2CCN(c3ccc(Br)cn3)CC2)cc1CC(=O)O" | system: PPAR delta (Homo sapiens)
Solution: < 5 µM

Exercise: # query: EC50 | item "O=C(O)CSCc1cccc(S(=O)(=O)N2CCN(c3ccc(C(F)(F)F)cc3)CC2)c1" | system: PPAR delta (Homo sapiens)
Solution: 5 to 100 µM

Exercise: # query: EC50 | item "CC(C)(Oc1cccc(S(=O)(=O)N2CCN(c3ccc(C(F)(F)F)cc3)CC2)c1)C(=O)O" | system: PPAR delta (Homo sapiens)
Solution: 5 to 100 µM

Exercise: # query: EC50 | item "O=C(O)Cc1cc(S(=O)(=O)N2CCN(c3ccc(C(F)(F)F)cc3)CC2)ccc1O" | system: PPAR delta (Homo sapiens)
Solution: < 5 µM

Exercise: # query: EC50 | item "O=C(O)Cc1cc(S(=O)(=O)N2CCN(c3ccc(C(F)(F)F)cn3)CC2)ccc1O" | system: PPAR delta (Homo sapiens)
Solution: < 5 µM

Exercise: # query: EC50 | item "Cc1ccc(S(=O)(=O)N2CC=C(c3ccc(C(F)(F)F)cn3)CC2)cc1CC(=O)O" | system: PPAR delta (Homo sapiens)
Solution: < 5 µM

Exercise: # query: EC50 | item "Cc1ccc(S(=O)(=O)N2CCN(c3ccc(OC(F)(F)F)cc3)[C@@H](C)C2)cc1CC(=O)O" | system: PPAR delta (Homo sapiens)
Solution: < 5 µM

Exercise: # query: EC50 | item "Cc1ccc(S(=O)(=O)N2CCN(c3nc(Cl)c(Cl)s3)CC2)cc1CC(=O)O" | system: PPAR delta (Homo sapiens)
Solution: < 5 µM

Exercise: # query: EC50 | item "Cc1ccc(S(=O)(=O)N2CCC(c3ccc(Cl)cc3)CC2)cc1CC(=O)O" | system: PPAR delta (Homo sapiens)
Solution: 5 to 100 µM

Exercise: # query: EC50 | item "O=C(O)Cc1cc(Br)cc(S(=O)(=O)N2CCN(c3ccc(OC(F)(F)F)cc3)CC2)c1" | system: PPAR delta (Homo sapiens)
Solution: < 5 µM
